# Species: Rattus norvegicus
# Assay Protocol: Open TG-GATES - Regimen: Daily Repeat
# Format: toxicity, organism-based, Sprague-Dawley
# Design: regimen Daily Repeat, gender Male, age 6 weeks
# Stated Conditions: in vivo, po, 0 mg/kg, […], tissue Plasma, route gavage, dose level Control, time 7 day
Item-by-item account of RALB
Readout Kind: RALB (g/dL)

[
  {
    "Molecule": "Clc1c(Cl)c(Cl)c(Cl)c(Cl)c1Cl",
    "Readout Kind": "RALB",
    "Readout Number": 4
  },
  {
    "Molecule": "C#C[C@]1(O)CC[C@H]2[C@@H]3CCC4=Cc5oncc5C[C@]4(C)[C@H]3CC[C@@]21C",
    "Readout Kind": "RALB",
    "Readout Number": 3
  },
  {
    "Molecule": "CC(=O)Nc1nnc(S(N)(=O)=O)s1 [ACETAZOLAMIDE]",
    "Readout Kind": "RALB",
    "Readout Number": 3.1
  },
  {
    "Molecule": "CN(C)[C@@H]1C(O)=C(C(N)=O)C(=O)[C@@]2(O)C(O)=C3C(=O)c4c(O)cccc4[C@@](C)(O)[C@H]3C[C@@H]12",
    "Readout Kind": "RALB",
    "Readout Number": 3.9
  },
  {
    "Molecule": "CN1C(C(=O)Nc2ccccn2)=C(O)c2sc(Cl)cc2S1(=O)=O",
    "Readout Kind": "RALB",
    "Readout Number": 3.6
  },
  {
    "Molecule": "CCOC(=O)[C@H](CCc1ccccc1)N[C@@H](C)C(=O)N1CCC[C@H]1C(=O)O",
    "Readout Kind": "RALB",
    "Readout Number": 4
  },
  {
    "Molecule": "C1CCC(C(CC2CCCCN2)C2CCCCC2)CC1 (centres undefined)",
    "Readout Kind": "RALB",
    "Readout Number": 3.1
  },
  {
    "Molecule": "Cc1cccc(Nc2ccccc2C(=O)O)c1C",
    "Readout Kind": "RALB",
    "Readout Number": 3.3
  },
  {
    "Molecule": "CC(CN1c2ccccc2Sc2ccccc21)N(C)C (centres undefined)",
    "Readout Kind": "RALB",
    "Readout Number": 3.1
  }
]

----------
# Organism: Rattus norvegicus
# Assay Protocol: Open TG-GATES - Regimen: Single
# Assay type: toxicity, organism-based, Sprague-Dawley
# Set-up: regimen Single, gender Male, age 6 weeks
# Stated Conditions: in vivo, po, 0 mg/kg, 6 h, tissue Plasma, route gavage, dose level Control
Recorded measurements of PL, one per entry
Readout Kind: PL (mg/dL)

[
  {
    "Compound": "CC(=O)Nc1nnc(S(N)(=O)=O)s1 [ACETAZOLAMIDE]",
    "Unit": "mg/dL",
    "Readout Number": 127.8
  },
  {
    "Compound": "Clc1c(Cl)c(Cl)c(Cl)c(Cl)c1Cl",
    "Unit": "mg/dL",
    "Readout Number": 149.6
  },
  {
    "Compound": "COc1cc([C@@H]2c3cc4c(cc3[C@@H](O[C@@H]3O[C@@H]5CO[C@@H](C)O[C@H]5[C@H](O)[C@H]3O)[C@H]3COC(=O)[C@H]23)OCO4)cc(OC)c1O [ETOPOSIDE]",
    "Unit": "mg/dL",
    "Readout Number": 132.8
  },
  {
    "Compound": "CCOC(=O)[C@H](CCc1ccccc1)N[C@@H](C)C(=O)N1CCC[C@H]1C(=O)O",
    "Unit": "mg/dL",
    "Readout Number": 130.6
  },
  {
    "Compound": "Cc1cccc(Nc2ccccc2C(=O)O)c1C",
    "Unit": "mg/dL",
    "Readout Number": 134.6
  },
  {
    "Compound": "CN(C)[C@@H]1C(O)=C(C(N)=O)C(=O)[C@@]2(O)C(O)=C3C(=O)c4c(O)cccc4[C@@](C)(O)[C@H]3C[C@@H]12",
    "Unit": "mg/dL",
    "Readout Number": 130.4
  },
  {
    "Compound": "CC(CN1c2ccccc2Sc2ccccc21)N(C)C (stereo not given)",
    "Unit": "mg/dL",
    "Readout Number": 133.8
  },
  {
    "Compound": "C1CCC(C(CC2CCCCN2)C2CCCCC2)CC1 (stereo not given)",
    "Unit": "mg/dL",
    "Readout Number": 147.8
  },
  {
    "Compound": "C#C[C@]1(O)CC[C@H]2[C@@H]3CCC4=Cc5oncc5C[C@]4(C)[C@H]3CC[C@@]21C",
    "Unit": "mg/dL",
    "Readout Number": 118.2
  },
  {
    "Compound": "CN1C(C(=O)Nc2ccccn2)=C(O)c2sc(Cl)cc2S1(=O)=O",
    "Unit": "mg/dL",
    "Readout Number": 146
  }
]

----------
# Plat per record follows
# Species: Rattus norvegicus
# Assay Protocol: Open TG-GATES - Regimen: Daily Repeat
# Assay type: toxicity, organism-based, Sprague-Dawley
# Set-up: regimen Daily Repeat, gender Male, age 6 weeks
# Stated Conditions: in vivo, po, 0 mg/kg, […], tissue Blood, route gavage, dose level Control, time 7 day

[
  {
    "Compound": "CN1C(C(=O)Nc2ccccn2)=C(O)c2sc(Cl)cc2S1(=O)=O [LORNOXICAM]",
    "Plat [x10_4/uL]": 132.2
  },
  {
    "Compound": "Cc1cccc(Nc2ccccc2C(=O)O)c1C [MEFENAMIC ACID]",
    "Plat [x10_4/uL]": 121.6
  },
  {
    "Compound": "CC(CN1c2ccccc2Sc2ccccc21)N(C)C (stereo not drawn) [PROMETHAZINE]",
    "Plat [x10_4/uL]": 105
  },
  {
    "Compound": "CN(C)[C@@H]1C(O)=C(C(N)=O)C(=O)[C@@]2(O)C(O)=C3C(=O)c4c(O)cccc4[C@@](C)(O)[C@H]3C[C@@H]12 [TETRACYCLINE]",
    "Plat [x10_4/uL]": 112.5
  },
  {
    "Compound": "CCOC(=O)[C@H](CCc1ccccc1)N[C@@H](C)C(=O)N1CCC[C@H]1C(=O)O",
    "Plat [x10_4/uL]": 121.8
  },
  {
    "Compound": "C1CCC(C(CC2CCCCN2)C2CCCCC2)CC1 (stereo not drawn) [PERHEXILINE]",
    "Plat [x10_4/uL]": 118.5
  },
  {
    "Compound": "C#C[C@]1(O)CC[C@H]2[C@@H]3CCC4=Cc5oncc5C[C@]4(C)[C@H]3CC[C@@]21C [DANAZOL]",
    "Plat [x10_4/uL]": 116.5
  },
  {
    "Compound": "Clc1c(Cl)c(Cl)c(Cl)c(Cl)c1Cl [PERCHLOROBENZENE]",
    "Plat [x10_4/uL]": 96.5
  }
]

----------
Each item that follows carries a reported Plat.
# Species: Rattus norvegicus
# Assay Protocol: Open TG-GATES - Regimen: Single
# Type: toxicity, organism-based, Sprague-Dawley
# Set-up: regimen Single, gender Male, age 6 weeks
# Stated Conditions: in vivo, po, 0 mg/kg, 6 h, tissue Blood, route gavage, dose level Control

[
  {
    "Molecule": "COc1cc([C@@H]2c3cc4c(cc3[C@@H](O[C@@H]3O[C@@H]5CO[C@@H](C)O[C@H]5[C@H](O)[C@H]3O)[C@H]3COC(=O)[C@H]23)OCO4)cc(OC)c1O [ETOPOSIDE]",
    "Plat / x10_4/uL": 117.8
  },
  {
    "Molecule": "CC(CN1c2ccccc2Sc2ccccc21)N(C)C (stereo not given)",
    "Plat / x10_4/uL": 111.7
  },
  {
    "Molecule": "C#C[C@]1(O)CC[C@H]2[C@@H]3CCC4=Cc5oncc5C[C@]4(C)[C@H]3CC[C@@]21C",
    "Plat / x10_4/uL": 114.9
  },
  {
    "Molecule": "Clc1c(Cl)c(Cl)c(Cl)c(Cl)c1Cl",
    "Plat / x10_4/uL": 134.1
  },
  {
    "Molecule": "CN(C)[C@@H]1C(O)=C(C(N)=O)C(=O)[C@@]2(O)C(O)=C3C(=O)c4c(O)cccc4[C@@](C)(O)[C@H]3C[C@@H]12",
    "Plat / x10_4/uL": 101.8
  },
  {
    "Molecule": "CC(=O)Nc1nnc(S(N)(=O)=O)s1 [ACETAZOLAMIDE]",
    "Plat / x10_4/uL": 131.7
  },
  {
    "Molecule": "Cc1cccc(Nc2ccccc2C(=O)O)c1C",
    "Plat / x10_4/uL": 107.7
  },
  {
    "Molecule": "C1CCC(C(CC2CCCCN2)C2CCCCC2)CC1 (stereo not given)",
    "Plat / x10_4/uL": 130.2
  },
  {
    "Molecule": "CN1C(C(=O)Nc2ccccn2)=C(O)c2sc(Cl)cc2S1(=O)=O",
    "Plat / x10_4/uL": 119.7
  },
  {
    "Molecule": "CCOC(=O)[C@H](CCc1ccccc1)N[C@@H](C)C(=O)N1CCC[C@H]1C(=O)O",
    "Plat / x10_4/uL": 116.2
  }
]
